target_of_assay: T1, sEGFR-MMB (dimeric sEGFR mimetibody) (human)
T1 construct: Disulfide-linked homodimer: QIQ, sEGFR, flexible linker, J segment, human IgG1 hinge, CH2, CH3; also called sEGFR-Fc; dimeric EGFR
measurement_protocol: phage ELISA on coated sEGFR-MMB, chemiluminescence (background typically <200 units)
observation_type: ELISA (units)
API: value field is a number in units; no unit string.

[
  {
    "binder": "GGGVSGILPILVCHPAATGGGSGGSGG (pIX phagemid display, library S15; not shown: M13 phage coat protein pIX (MSVL...)) [phage clone displaying SEQ ID NO: 12 (S15 hit)]",
    "ELISA [units]": 1110
  }
]

(Q) What value of ELISA has been reported for the following binder? GGGGADTLPDLLCWESSLGGGSGGSGG (pIX phagemid display, library S15; not shown: M13 phage coat protein pIX (MSVL...)) [phage clone displaying SEQ ID NO: 19 (S15 hit)]
(A) 5720

(Q) What value of ELISA has been reported for the following binder? GGGELGLPTLLCWPTDTLGGGSGGSGG (pIX phagemid display, library S15; not shown: M13 phage coat protein pIX (MSVL...)) [phage clone displaying SEQ ID NO: 11 (S15 hit)]
(A) 9380

(Q) What value of ELISA has been reported for the following binder? GGGNWFSLPTLLCFPLNPGGGSGGSGG (pIX phagemid display, library S15; not shown: M13 phage coat protein pIX (MSVL...)) [phage clone displaying SEQ ID NO: 15 (S15 hit)]
(A) 3670

(Q) What value of ELISA has been reported for the following binder? GGGHVSLQSLPELICVVSGGGSGGSGG (pIX phagemid display, library S15; not shown: M13 phage coat protein pIX (MSVL...)) [phage clone displaying SEQ ID NO: 14 (S15 hit)]
(A) 1360
